observation type: melting point (°C)

{"columns": ["compound", "melting point (°C)"],
 "data": [
  ["CCCC(CCC)(CCC)NC(=O)N(C)C", 88],
  ["CN(CCCCNC(=O)c1ccc2ccccc2c1)C1CCc2ncsc2C1 (stereo not given)", 122]
]}

----------
observation type: melting point (°C)

{"columns": ["compound", "unit", "melting point"],
 "data": [
  ["COc1ccccc1N(CC(=O)N(C)c1ccccc1)C(=O)CNC(=O)Nc1cccc(C)c1", "°C", 212],
  ["Oc1ccc(Oc2cncnc2)cc1", "°C", 158]
]}

P: CCON=C(C(=O)O)c1csc(NC(c2ccccc2)(c2ccccc2)c2ccccc2)n1
Q: CCCCCC(=O)C=CC1=C(CCC(=O)O)C(=O)CC1O (stereo not given)
Exercise: Thinking about recorded melting point values, which is higher, P or Q ? Write the label of whichever entry you select.
Key: P
(P: 200 °C, Q: 57 °C)

----------
melting point values, listed per item

// known answers, use as guide
{"columns": ["molecule", "melting point"],
 "data": [
  ["Nc1c(SC(F)(F)F)cnn1-c1c(Cl)cc(C(F)(F)F)cc1Cl", "113 to 117 °C"],
  ["O=c1c2ccccc2oc2c(C3CCCCC3)cccc12", "122 to 124 °C"],
  ["Cc1cn(C2CCN(c3c(F)c(C)c4c(=O)c(C(=O)O)cn(C5CC5)c4c3F)C2)nn1 (stereo unspecified)", "232 to 234 °C"]
]}

Exercise: Would you kindly share the measured melting point for `COc1nc(C)c2c(c1C#N)CCCC2` ?
Key: 116 °C

Exercise: Would you kindly share the measured melting point for `COCCOc1ccc(-c2nc(C(=O)Nc3nccs3)c(-c3ccc(Cl)cc3)[nH]2)cc1` ?
Key: 147 to 148 °C

Exercise: Would you kindly share the measured melting point for `COc1ccc(-c2nc3ccc(O)cc3[nH]2)cc1C12CC3CC(CC(C3)C1)C2` ?
Key: 230 °C

Exercise: Would you kindly share the measured melting point for `CC(C)(C)OC(=O)N1CCn2c(c(C(N)=O)c(C#N)c2-c2ccccc2)C1` ?
Key: 214 to 215 °C

Exercise: Would you kindly share the measured melting point for `CC(=O)Nc1c(C#N)ccc(C#N)c1[N+](=O)[O-]` ?
Key: 232 to 233 °C

Exercise: Would you kindly share the measured melting point for `CSC(=S)C12CC3CC(CC(C3)C1)C2` ?
Key: 64.5 to 66 °C

Exercise: Would you kindly share the measured melting point for CC(O)c1cccc(-c2cc3c(=O)n(NS(C)(=O)=O)c(=O)[nH]c3cc2C(F)(F)F)c1 (stereo unspecified) ?
Key: 165 to 169 °C

Exercise: Would you kindly share the measured melting point for `NC(=S)Nc1ccc(Br)cn1` ?
Key: 242 to 243 °C

Exercise: Would you kindly share the measured melting point for `COC(=O)N1CCc2ccc(C(=O)CCC3CCN(C(=O)c4ccccc4)CC3)cc2CC1` ?
Key: 120 to 123 °C

Exercise: Would you kindly share the measured melting point for COc1cc(C(=O)NC2OCC(c3ccccc3)N3CCCCC23)cc(OC)c1OC (stereo unspecified) ?
Key: 126 to 128 °C

Exercise: Would you kindly share the measured melting point for COc1ccc(C2=NN(CCCCN)C(=O)[C@H]3CC=CC[C@@H]23)cc1OC (relative stereo) ?
Key: 108 to 109 °C

Exercise: Would you kindly share the measured melting point for `CCOc1cc(C(=CC#N)c2ccc(NC(C)=O)cc2)ccc1OC` ?
Key: 175 to 177 °C

Exercise: Would you kindly share the measured melting point for `O=C(Cn1c(-c2ccc(Cl)cc2)nc2cccnc21)N1CCC1` ?
Key: 196 to 197 °C

Exercise: Would you kindly share the measured melting point for `COC=C(C(=O)OC)c1ccccc1CBr` ?
Key: 88 to 90 °C

Exercise: Would you kindly share the measured melting point for `CC(=O)Oc1cc2occ(C=O)c(=O)c2cc1OC(C)=O` ?
Key: 133 to 135 °C

Exercise: Would you kindly share the measured melting point for `BrCc1nc2cc(Br)ccc2s1` ?
Key: 107 °C

Exercise: Would you kindly share the measured melting point for `CC=CCNc1ccc(Oc2nc(OC)cc(OC)n2)c(C(=O)OC)n1` ?
Key: 82 to 85 °C

Exercise: Would you kindly share the measured melting point for `CCCCOc1c(CNC(=O)OC(C)(C)C)n(CC(C)C)c(=O)c2ccc(C(=O)OC)cc12` ?
Key: 148 to 149 °C
